B1: glmS ribozyme (parent)
chain: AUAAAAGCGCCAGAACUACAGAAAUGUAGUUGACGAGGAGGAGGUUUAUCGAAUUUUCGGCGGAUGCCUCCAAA

Variants of: B1
Test Name: self-cleavage kobs at 40 uM GlcN6P; higher = faster cleavage; RNA array
Recorded Conditions: with glucosamine-6-phosphate
Fewer inactive variants are shown than the library holds.
Each entry below lists one item and its recorded self-cleavage kobs at 40 uM GlcN6P value.

# count of solved cases: 6
- Mutation Id: "A12G A14G"
  Parameter Measured: "self-cleavage kobs at 40 uM GlcN6P"
  Recorded Measurement: "2.51e-05 s⁻¹"
- Mutation Id: "C34A G62C"
  Parameter Measured: "self-cleavage kobs at 40 uM GlcN6P"
  Recorded Measurement: "< 1e-05 s⁻¹"
- Mutation Id: "A14U U30C C61U C68A"
  Parameter Measured: "self-cleavage kobs at 40 uM GlcN6P"
  Recorded Measurement: "< 1e-05 s⁻¹"
- Mutation Id: "G7C G40C"
  Parameter Measured: "self-cleavage kobs at 40 uM GlcN6P"
  Recorded Measurement: "< 1e-05 s⁻¹"
- Mutation Id: "C68U U69G C71A"
  Parameter Measured: "self-cleavage kobs at 40 uM GlcN6P"
  Recorded Measurement: "< 1e-05 s⁻¹"
- Mutation Id: "A15G C71G"
  Parameter Measured: "self-cleavage kobs at 40 uM GlcN6P"
  Recorded Measurement: "0.000107 s⁻¹"

The variant identified as G9U G13C registered its self-cleavage kobs at 40 uM GlcN6P at < 1e-05 s⁻¹

The variant identified as A6U C34U registered its self-cleavage kobs at 40 uM GlcN6P at < 1e-05 s⁻¹

The variant identified as G29U U54A registered its self-cleavage kobs at 40 uM GlcN6P at 0.000181 s⁻¹

The variant identified as A6G A53C C58A C61A registered its self-cleavage kobs at 40 uM GlcN6P at < 1e-05 s⁻¹

The variant identified as A12G C58U C61U registered its self-cleavage kobs at 40 uM GlcN6P at < 1e-05 s⁻¹

The variant identified as C8U A33C C71A registered its self-cleavage kobs at 40 uM GlcN6P at < 1e-05 s⁻¹

The variant identified as U47A A53G U54G registered its self-cleavage kobs at 40 uM GlcN6P at 0.000659 s⁻¹

The variant identified as U54C C67G registered its self-cleavage kobs at 40 uM GlcN6P at 5.95e-05 s⁻¹

The variant identified as G51C C58A C70A registered its self-cleavage kobs at 40 uM GlcN6P at < 1e-05 s⁻¹

The variant identified as C61G C70U registered its self-cleavage kobs at 40 uM GlcN6P at < 1e-05 s⁻¹
